Hello, the source for this data is PubChem BioAssay AID256, in case you need it.

Could you please report measured T/C for the items listed next?
tested on: CD2F1 mice, L1210 leukemia ip, survival T/C; assay: NCI In Vivo Anticancer Drug Screen. Data for tumor model L1210 Leukemia (intraperitoneal) in CD2F1 (CDF1) mice; details: endpoint: mean survival time; dose: 300.0 mg/kg/injection; schedule: Q01DX001 (ip); vehicle: saline; higher = longer survival
Toxic doses and inconclusive results are not listed.

Report T/C for COc1ccc(/C=N/O)cc1 please. 101 % of control

One more compound: C=CCC(C(=O)OC)(C(=O)OC)c1ccc(OC)c(OC)c1 98 % of control

Now this one: O=S1(=O)CCC1 105 % of control

Same question, CCCCCCCC/C=C\CCCCCCCC(=O)NCCN1CCCCC1 this time 96 % of control

----------
tested on: CD2F1 mice, L1210 leukemia ip, survival T/C; assay: NCI In Vivo Anticancer Drug Screen. Data for tumor model L1210 Leukemia (intraperitoneal) in CD2F1 (CDF1) mice; conditions: endpoint: mean survival time; dose: 6.25 mg/kg/injection; schedule: Q04DX003 (ip); vehicle: saline; higher = longer survival
Toxic doses and inconclusive results are not listed.
result-type: T/C

Provide the documented T/C with CD2F1 mice, L1210 leukemia ip, survival T/C as the system for C[N+](C)(Cc1ccc(F)cc1)C1c2ccccc2-c2ccccc21 98 % of control

Query C=C(Br)CNC(=O)C(F)(F)F next 96 % of control

Entry to check: [Au].[NH-]C1CCCCC1[NH-].[NH-]C1CCCCC1[NH-] (centres undefined) 96 % of control

Same again, this time with CCC(CC)(C[NH-])C[NH-].[Cl][Pt+2][Cl] 119 % of control

----------
test system: CD2F1 mice, L1210 leukemia ip, survival T/C; test: NCI In Vivo Anticancer Drug Screen. Data for tumor model L1210 Leukemia (intraperitoneal) in CD2F1 (CDF1) mice; settings: endpoint: mean survival time; dose: 100.0 mg/kg/injection; schedule: Q04DX003 (ip); vehicle: Klucel (hydroxypropylcellulose) (HPC); higher = longer survival
Inconclusive results and toxic doses are left out.
result-type: T/C

Record request: T/C value, item O/N=C1/CCCC/C1=C/c1ccc(Cl)cc1 98 % of control

Input O=C(O)CCCCCCCCC#CC#CCCCc1ccccc1 95 % of control

CCOC(=O)CNC(=O)c1ccc(N(CCCl)CCCl)cc1 , same question. 95 % of control

And then Cc1cc(SCSc2cc(C)[o+]c(C)c2)cc(C)[o+]1 , what is it? 100 % of control

Entry CC(=O)NN1C(=O)c2ccccc2C1=O please 98 % of control

Would you mind doing CCC1CN2CCC1CC2C(O)c1cc[n+]([O-])c2ccc(OC)cc12 (configuration not stated) as well? 98 % of control

Same question for O=C(COc1ccccc1)N(/N=C/c1ccccc1)C(=O)c1ccccc1 please. 94 % of control

Same for O=C1c2ccccc2C(=O)N1OC1CCCCO1 (configuration not stated) 92 % of control

Now consider O=Cc1cc(Cl)c(O)c(Cl)c1 and answer again. 94 % of control

Proceed to CCOC(=O)N1CCN(c2ccc(Cl)cc2)CC1 93 % of control

Next compound up: O=C1CC2CCC1C2 (configuration not stated) 97 % of control

Consider next the compound Nc1ccc(NC(=S)Nc2ccc(N)cc2)cc1 in the same way. 98 % of control

----------
system: CD2F1 mice, L1210 leukemia ip, survival T/C; test: NCI In Vivo Anticancer Drug Screen. Data for tumor model L1210 Leukemia (intraperitoneal) in CD2F1 (CDF1) mice; settings: endpoint: mean survival time; dose: 100.0 mg/kg/injection; schedule: Q01DX009 (ip); vehicle: saline with Tween-80; higher = longer survival
Inconclusive results and toxic doses are left out. Residues, ends and D or L forms follow the SMILES beside them. *: point of attachment. Cbz = O=C(OCc1ccccc1)*; OBn = c1ccc(CO*)cc1
Record form. Attribute: T/C. Fill in for each entry.

What does the data say about its T/C? Entry: O=S(=O)(O)C1CCC(O)C2[N-]CCCC21.O=S(=O)(O)C1CCC(O)C2[N-]CCCC21.[Zn+2] (stereo not drawn) 95 % of control

Check Cc1ccc(NC(=O)N2CCN(C)CC2)cc1[N+](=O)[O-] too. 90 % of control

Same again, this time with O=C1OC(c2ccccc2)=N/C1=C\c1cccc(O)c1 104 % of control

Same again, this time with CN(C)/N=C/c1cccc(CC(O)(C(F)(F)F)C(F)(F)F)n1 96 % of control

Ok, now Cc1cccc2c1-c1c(C)cccc1CSC2 95 % of control

And COc1ccccc1NC(C)=O ? 96 % of control

Try CCOC(=O)CNC(=O)Nc1ccccc1OCC next. 89 % of control

And O=C(CCl)OCC(Cl)Cl ? 104 % of control

Then Cc1ccc(NC(=S)Nc2ccc(C)cc2)cc1 ? 89 % of control

Follow-up entry: CN(C)S(=O)(=O)c1ccccc1C(O)(c1ccccc1)c1ccccc1 103 % of control

Again, but for CC(NC=O)c1c[nH]c(=O)[nH]c1=O (stereo not drawn) 100 % of control

Further, for N#CC(C(=O)N1CCCC1)=C(S)S ? 102 % of control

Note, next up: Nc1ccc(S(=O)(=O)c2ccc(N)c(S(N)(=O)=O)c2)cc1 92 % of control

# repeat for O=C(CNC(=O)OCc1ccccc1)NCC(=O)OCc1ccccc1 (Cbz-Gly-Gly-OBn) 93 % of control

Lookup COc1ccc(C2(C)N=NC(=C(c3ccccc3)c3ccccc3)O2)cc1 (stereo not drawn) 97 % of control

Cool, now COC1(OC)C2C=CC1CC2 103 % of control

Also check C/C(=N/Nc1ccc([N+](=O)[O-])cc1[N+](=O)[O-])c1ccccc1 91 % of control

Also Cc1ccc2c(c1)NP(=S)(c1ccccc1)N2 (stereo not drawn) , if possible. 91 % of control

Moving on to Cc1cc2sccc2cn1 98 % of control

O=C(Cl)c1ccc([N+](=O)[O-])cc1 , same question. 101 % of control

Continue with CCN(C(=O)NC)c1cc(C)ccc1OC 87 % of control

Moving on to the next molecule: C(=NCCN=Cc1ccccc1)c1ccccc1 97 % of control

// same read-out, input: NNC(=O)c1ccc(C(=O)NN)cc1 97 % of control

Now try COc1nc(NC(C)C)nc(NC(C)C)n1 . 107 % of control

Further, for CCCCOC(=O)CCCC(=O)OCCCC ? 108 % of control

// next record C[Si](C)(C)Oc1cccc(O[Si](C)(C)C)c1 92 % of control

And the next one, O=c1n(CCCl)c(=O)n(CCCl)c(=O)n1CCCl ? 100 % of control

# repeat for Cc1cc(C)c(NC(=O)CC#N)c(C)c1 93 % of control

// repeat for CCOC(=O)C1=C(C)N(Cc2ccccc2)C(C)=C(C(=O)OCC)C1(C)C and report 107 % of control

Consider next the molecule O=C(Nc1ccc(F)c(Cl)c1)Oc1ccc(F)cc1Cl in the same way. 103 % of control

// query: O=C(NCCCCC(Cl)C(=O)O)c1ccccc1 (stereo not drawn) 98 % of control

Input NC(=S)N/N=C/c1ccc(O)cn1 102 % of control

O=C(Nc1ccccc1O)/C(Cl)=C/Cl , same question. 104 % of control

Same question, CCCCCCCCCCCCCCCCCCCCCC(=O)OC this time 102 % of control

Let us now turn to CCS(=O)(=O)OC1CCCCCCC1NC(=O)c1ccccc1 (stereo not drawn) 97 % of control

Same question for O=C(Cc1ccccc1)NC(CSSCC(NC(=O)Cc1ccccc1)C(=O)O)C(=O)O (stereo not drawn) please. 101 % of control

CCCCOC(=O)c1ccc(NC(=O)Nc2ccccc2)cc1 ? 93 % of control

Record: O/N=C(/CN1CCOCC1)c1ccccc1 97 % of control

Same lookup for CCCCNC(=O)C(C)S(=O)(=O)c1ccc(C)cc1 (stereo not drawn) , please. 103 % of control

Thanks! And COc1cc(Cl)ccc1NC(=O)OCCOc1cc(OC)c(Cl)c(OC)c1 ? 101 % of control

Next record, please: Nc1ccc(N=Nc2ccccc2)c(N)n1 98 % of control

Now consider O=[N+]([O-])c1ccc2ccccc2c1I . 92 % of control

Lookup COc1cc(Cl)ccc1NC(=O)Nc1ccc(S(N)(=O)=O)cc1 100 % of control

Same read-out for Cc1ccc(Sc2ccc([N+](=O)[O-])cc2)cc1 ? 96 % of control

Also C=C1C(=O)O[C@H]2C[C@@H](C)[C@@H]3[C@@H](O)C[C@@H](O)[C@@]3(C)C[C@H]12 , if possible. 100 % of control

Try this molecule too: CCOC(=O)c1ccc(NC(=O)Nc2cc(Cl)c(Cl)cc2C)cc1 88 % of control

Next: NC(=O)c1cc(=O)[nH]o1 102 % of control

For CCN(CC)CCNC1CCCCC1 then? 96 % of control

Same question for CC(C)(C)/C=C\C=C\C(C)(C)C please. 103 % of control

What would you report for Clc1[nH]nc2ccccc12 ? 101 % of control

// same read-out, input: Cc1ccc(C#CC(C)(C)O)cn1 94 % of control

Same for CC(=O)Nc1ccccc1OC(=O)OCC(Cl)(Cl)Cl 96 % of control

Next: O=S(=O)(Oc1ccccc1)c1ccc(Cl)cc1 95 % of control
